- system-under-test: Aminopeptidase N (Plasmodium falciparum FcB1/Columbia, UniProt O96935)
- Sequence (O96935 whole entry): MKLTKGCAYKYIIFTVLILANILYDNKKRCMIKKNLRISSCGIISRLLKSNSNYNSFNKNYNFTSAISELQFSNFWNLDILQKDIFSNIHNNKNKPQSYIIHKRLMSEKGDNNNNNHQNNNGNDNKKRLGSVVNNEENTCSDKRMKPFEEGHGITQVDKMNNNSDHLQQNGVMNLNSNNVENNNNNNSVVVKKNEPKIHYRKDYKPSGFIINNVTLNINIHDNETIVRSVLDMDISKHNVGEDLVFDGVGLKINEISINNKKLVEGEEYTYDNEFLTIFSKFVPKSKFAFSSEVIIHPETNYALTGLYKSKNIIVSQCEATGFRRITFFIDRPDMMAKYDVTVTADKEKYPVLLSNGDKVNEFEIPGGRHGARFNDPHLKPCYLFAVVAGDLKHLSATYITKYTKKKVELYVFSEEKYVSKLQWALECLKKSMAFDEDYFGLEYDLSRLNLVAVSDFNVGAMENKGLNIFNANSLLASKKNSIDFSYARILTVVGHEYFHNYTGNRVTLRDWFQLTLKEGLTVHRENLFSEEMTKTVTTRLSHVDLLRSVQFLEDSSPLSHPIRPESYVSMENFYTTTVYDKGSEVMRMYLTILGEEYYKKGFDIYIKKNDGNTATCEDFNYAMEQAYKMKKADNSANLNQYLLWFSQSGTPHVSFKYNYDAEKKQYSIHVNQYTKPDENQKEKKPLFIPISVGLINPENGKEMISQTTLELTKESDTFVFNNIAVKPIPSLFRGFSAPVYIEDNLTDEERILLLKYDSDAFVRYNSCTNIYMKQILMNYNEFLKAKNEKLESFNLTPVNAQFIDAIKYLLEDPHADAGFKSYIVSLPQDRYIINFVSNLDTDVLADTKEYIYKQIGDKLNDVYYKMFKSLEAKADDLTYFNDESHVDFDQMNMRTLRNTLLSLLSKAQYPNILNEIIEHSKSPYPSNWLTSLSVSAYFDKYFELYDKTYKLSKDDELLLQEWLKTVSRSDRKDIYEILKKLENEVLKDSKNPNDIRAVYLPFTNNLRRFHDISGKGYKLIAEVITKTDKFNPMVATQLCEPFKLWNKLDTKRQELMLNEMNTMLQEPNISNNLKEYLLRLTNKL
- measurement-notes: P. falciparum M1AAP inhibitors, biochemical, fluorogenic H-Leu-NHMec substrate, 1536-well (AID 1445)
- Design: species or system Plasmodium falciparum 3D7, 3D7
The source made the active and inactive calls.
value-type: IC50

1. Cc1cc(N2C(=O)c3ccc(C(=O)NCc4ccccc4)cc3C2=O)no1
18.6 µM (active)
2. CS(=O)(=O)c1sc2nc(-c3cccs3)cc(-c3ccccc3)c2c1N
81.1 µM (active)
3. Cc1ccc(-c2c(C)sc3ncn(CC(=O)N4CCOCC4)c(=O)c23)cc1C
12.4 µM (active)
4. Oc1c(Cl)cc(Cl)cc1Sc1cc(Cl)cc(Cl)c1O
42.9 µM (active)
5. O=C1NC(=O)N(CCc2ccccc2)C(=O)/C1=C/NNC(=O)c1ccncc1
38.4 µM (active)
6. CCOC(=O)c1[nH]cnc1C(=O)Nc1ccncc1
26 µM (active)
7. Cc1ccc(C)c(CSc2ncccc2C(=O)O)c1
77.7 µM (active)
8. Cc1ccc(-n2nnnc2SCC(=O)NC(C(=O)O)(c2ccccc2)c2ccccc2)cc1C
29.2 µM (active)

* * *

Entries annotated with measured IC50
- system-under-test: Epstein-Barr nuclear antigen 1 (Epstein-Barr virus (strain B95-8) (HHV-4) (Human herpesvirus 4), UniProt P03211)
- Sequence (P03211 whole entry): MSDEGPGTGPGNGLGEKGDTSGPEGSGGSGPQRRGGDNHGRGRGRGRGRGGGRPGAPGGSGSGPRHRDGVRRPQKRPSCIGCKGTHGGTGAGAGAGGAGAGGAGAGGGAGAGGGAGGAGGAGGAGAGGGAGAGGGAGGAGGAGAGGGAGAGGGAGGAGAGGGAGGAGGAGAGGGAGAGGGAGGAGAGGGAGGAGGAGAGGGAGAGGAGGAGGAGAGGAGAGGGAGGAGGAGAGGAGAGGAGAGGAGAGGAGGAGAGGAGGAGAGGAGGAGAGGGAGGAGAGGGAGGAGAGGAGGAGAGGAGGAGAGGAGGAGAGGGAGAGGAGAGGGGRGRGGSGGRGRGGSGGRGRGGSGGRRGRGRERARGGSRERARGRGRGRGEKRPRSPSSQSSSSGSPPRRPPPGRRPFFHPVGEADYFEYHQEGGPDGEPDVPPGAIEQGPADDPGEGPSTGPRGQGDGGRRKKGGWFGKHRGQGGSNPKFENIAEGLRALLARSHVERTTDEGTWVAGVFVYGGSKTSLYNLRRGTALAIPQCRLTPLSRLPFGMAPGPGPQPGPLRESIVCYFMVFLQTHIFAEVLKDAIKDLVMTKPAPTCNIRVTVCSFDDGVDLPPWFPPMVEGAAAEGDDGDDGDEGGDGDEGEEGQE
- measurement-notes: EBNA-1 inhibitors, dose response, biochemical, fluorescence polarization, 1536-well (AID 2381);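 also: fluorescence polarization of a Cy5 DNA probe bound by EBNA-1 protein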
- Set-up: species or system human gammaherpesvirus 4
Active and inactive are the calls of the source.
value-type: IC50

1) COc1cc(-c2nc3n(n2)C(c2cccc(OC)c2OC)C2=C(O)CCCC2=N3)cc(OC)c1OC (centres undefined)
12.9 µM (not active)
2) Cc1ccc(NC(=O)CSc2nnc(NC(=O)c3ccc(S(=O)(=O)N4CCOCC4)cc3)s2)cc1
15.7 µM (not active)
3) O=C(Nc1ccccc1F)c1cc2c(s1)-c1ccccc1S(=O)(=O)C2
15.9 µM (not active)
4) COc1ccc(-c2cn3c(C)c(C(=O)NCc4ccc5c(c4)OCO5)sc3n2)cc1
4.84 µM (active)

* * *

- system-under-test: Sentrin-specific protease 8 (Homo sapiens, UniProt Q96LD8);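 also: luminescence read-out of SENP8 inhibition, dose-response confirmation following an ultra-high-throughput screen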
- Sequence (Q96LD8 whole entry): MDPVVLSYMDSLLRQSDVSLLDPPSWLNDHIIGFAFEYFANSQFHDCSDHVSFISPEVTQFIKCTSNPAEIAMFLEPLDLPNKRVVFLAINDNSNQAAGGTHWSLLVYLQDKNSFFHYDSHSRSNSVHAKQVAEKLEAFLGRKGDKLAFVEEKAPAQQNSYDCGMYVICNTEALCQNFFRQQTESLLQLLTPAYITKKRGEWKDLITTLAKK
- Type: functional
Calls of active or inactive are those of the source.
IC50: recorded values
value-type: IC50

1. Nc1ccc(/C=C/c2ccc3ncccc3c2)cc1
> 100 µM (inactive)
2. NC(=O)c1c(NC(=O)c2ccccc2)sc2c1CCC2
> 100 µM (inactive)
3. O=C(NNc1cc(N2CCCC2)nc(N2CCCC2)n1)c1ccc([N+](=O)[O-])cc1
2.12 µM (active)
4. CCN(CC)c1ccc(NC(=O)COC(=O)c2cccs2)cc1
> 100 µM (inactive)
5. CC(=O)Nc1ccc(C(=O)COC(=O)C2CCCCC2)c(F)c1
65.6 µM (active)

* * *

// values below are reported AC50
- measurement-notes: MC4R antagonists, dose response, counter-screen for LGR2 antagonist project, cell-based, plate reader, cherry pick (AID 743444);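 also: transfected HEK 293 cells stimulated with alpha-MSH peptide; potency of inhibitors of the alpha-MSH evoked signal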
- Type: functional
Active and inactive are the calls of the source.
value-type: AC50

1. O=C(Nc1cc2ccccc2oc1=O)c1ccccc1
3.08 µM (active)
2. Cc1ccc2nc(-c3ccc(NC(=O)COC(=O)c4ccco4)cc3)sc2c1
3.55 µM (active)
3. COc1ccc(S(=O)(=O)N(C)C[C@@H]2Oc3c(NC(=O)c4nc5ccccc5s4)cccc3C(=O)N([C@@H](C)CO)C[C@H]2C)cc1
28.8 µM (active)
4. CC(C)n1ncc2c(C(=O)Nc3cccc(C#N)c3)cc(C3CC3)nc21
0.789 µM (active)
5. O=C(Nc1ccc(Cl)cc1)Nc1ccccc1C(=O)O
6.99 µM (active)

* * *

- measurement-notes: CRF-BP/CRF-R2 complex antagonists, dose response, cell-based, uHTS hits, 384-well (AID 651639)
- Type: functional, Homo sapiens
- study-conditions: read-out: IC50_Mean
Calls of active or inactive are those of the source.
Classes used: active, inactive

1. O=[N+]([O-])c1ccc(Sc2ccccc2)nc1
active
2. COC(=O)c1ccc(CSc2nc3c(c(=O)n2-c2ccc(Br)cc2)SCC3)o1
active
3. Cc1ccc(S(=O)(=O)c2nnn3c2nc(N2CCOCC2)c2ccccc23)c(C)c1
inactive
4. COC(=O)c1sc(-c2ccc(C(C)(C)C)cc2)cc1NC(=O)CSCC(=O)O
active
5. Clc1cccc(-c2nnc(SC/C=C/c3ccccc3)n2Cc2ccco2)c1
inactive
6. O=C(NCc1ccc2c(c1)OCO2)c1c(F)c(F)c(F)c(F)c1F
active

* * *

- system-under-test: FAD-linked sulfhydryl oxidase ALR (Homo sapiens)
- Sequence (P55789 whole entry): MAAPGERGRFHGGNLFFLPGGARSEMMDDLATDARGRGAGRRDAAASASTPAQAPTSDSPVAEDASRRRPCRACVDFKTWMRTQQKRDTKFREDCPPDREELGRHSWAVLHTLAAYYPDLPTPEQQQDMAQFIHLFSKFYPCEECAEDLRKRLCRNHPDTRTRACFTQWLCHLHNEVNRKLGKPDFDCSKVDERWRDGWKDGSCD
- measurement-notes: inhibitors of human ALR sulfhydryl oxidase, dose response, biochemical, H2O2 detection, luminescence, cherry-pick (AID 493248)
Active and inactive are the calls of the source.
Entries annotated with measured AC50
value-type: AC50

1) C=CCn1c(S)nnc1-c1cc(-c2ccccc2)sc1N
< 0.005 µM (active)
2) CC(C)C(=O)NCCSc1c[nH]c2ccccc12
3.12 µM (active)
3) Cc1ccc(NC2CCCN(C(=O)CCCN3CCCCC3=O)C2)cc1C (stereo unspecified)
8.32 µM (active)
4) O=C(CCN1C(=O)/C(=C/c2ccccc2Cl)SC1=S)Nc1ccccc1C(=O)O
2.46 µM (active)
5) Cc1cccc(N2CC(C(=O)Nc3ccccc3N3CCCC3)CC2=O)c1C (stereo unspecified)
1.93 µM (active)
6) O=C(O)c1[nH]c2ccccc2c1NS(=O)(=O)c1ccc(F)cc1
3.4 µM (active)
7) Nc1ccc(-c2nc3cc(N)ccc3o2)cc1
0.289 µM (active)
8) O/N=C\c1ccc(-c2ccccc2)o1
6.45 µM (active)
9) Cc1oc2cc3oc(=O)c(CC(=O)N[C@@H](C)C(=O)NC(Cc4ccc(Cl)cc4)C(=O)O)c(C)c3cc2c1C (stereo partly specified)
94.3 µM (active)
10) Cc1ccc(-n2c(S)nnc2-c2cnccn2)cc1
6.42 µM (active)
11) CC(=O)Nc1ccc(S(=O)(=O)N[C@@H](C)C(=O)N2CCN(c3ccccn3)CC2)cc1
1.37 µM (active)

* * *

In this section, each of the compounds is paired with its reported AC50.
- measurement-notes: HEK293 cell cytotoxicity, dose response, cytotoxicity control, plate reader, cherry-picked samples (AID 743446)
- Assay type: functional, cell-based
Calls of active or inactive are those of the source.
value-type: AC50

1. COc1cccc(-c2ncn(CCc3ccccc3OC)c2CC(C)C)c1
> 52 µM (inactive)
2. COc1ccc(S(=O)(=O)N(C)C[C@@H]2Oc3c(NC(=O)c4nc5ccccc5s4)cccc3C(=O)N([C@@H](C)CO)C[C@H]2C)cc1
> 52 µM (inactive)
3. CCC1=C(CC2NCCc3ccccc32)CC2c3cc(OC)c(OC)cc3CCN2C1 (centres undefined)
33.6 µM (active)
4. O=C(Nc1cc2ccccc2oc1=O)c1ccccc1
37.2 µM (active)

* * *

Listed here are compounds together with their documented IC50.
- system-under-test: Coagulation factor XII (Homo sapiens, UniProt P00748);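 also: activated factor XIIa alpha cleaving a fluorogenic AMC peptide substrate; inhibitor potency from loss of enzyme activity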
- Type: functional
The source made the active and inactive calls.
value-type: IC50

1) COc1ccc(-c2cc(C(=O)c3c(N)n(C)c(=O)n(C)c3=O)c3ccccc3n2)cc1OC
> 50 µM (inactive)
2) COc1ccc(N(CC(=O)Nc2ccccc2SC)S(C)(=O)=O)cc1OC
> 50 µM (inactive)
3) COCc1c(C(=O)OCc2nc(N)nc(Nc3ccccc3C)n2)oc2ccccc12
> 50 µM (inactive)
4) CCn1c(SCC(=O)N2CCN(c3ccccc3)CC2)nnc1-c1cc2cc(Cl)ccc2o1
> 50 µM (inactive)

* * *

Below: a set of entries, each annotated with reported EC50.
- system-under-test: UniProt:Q9QUQ5
- Sequence (Q9QUQ5 whole entry): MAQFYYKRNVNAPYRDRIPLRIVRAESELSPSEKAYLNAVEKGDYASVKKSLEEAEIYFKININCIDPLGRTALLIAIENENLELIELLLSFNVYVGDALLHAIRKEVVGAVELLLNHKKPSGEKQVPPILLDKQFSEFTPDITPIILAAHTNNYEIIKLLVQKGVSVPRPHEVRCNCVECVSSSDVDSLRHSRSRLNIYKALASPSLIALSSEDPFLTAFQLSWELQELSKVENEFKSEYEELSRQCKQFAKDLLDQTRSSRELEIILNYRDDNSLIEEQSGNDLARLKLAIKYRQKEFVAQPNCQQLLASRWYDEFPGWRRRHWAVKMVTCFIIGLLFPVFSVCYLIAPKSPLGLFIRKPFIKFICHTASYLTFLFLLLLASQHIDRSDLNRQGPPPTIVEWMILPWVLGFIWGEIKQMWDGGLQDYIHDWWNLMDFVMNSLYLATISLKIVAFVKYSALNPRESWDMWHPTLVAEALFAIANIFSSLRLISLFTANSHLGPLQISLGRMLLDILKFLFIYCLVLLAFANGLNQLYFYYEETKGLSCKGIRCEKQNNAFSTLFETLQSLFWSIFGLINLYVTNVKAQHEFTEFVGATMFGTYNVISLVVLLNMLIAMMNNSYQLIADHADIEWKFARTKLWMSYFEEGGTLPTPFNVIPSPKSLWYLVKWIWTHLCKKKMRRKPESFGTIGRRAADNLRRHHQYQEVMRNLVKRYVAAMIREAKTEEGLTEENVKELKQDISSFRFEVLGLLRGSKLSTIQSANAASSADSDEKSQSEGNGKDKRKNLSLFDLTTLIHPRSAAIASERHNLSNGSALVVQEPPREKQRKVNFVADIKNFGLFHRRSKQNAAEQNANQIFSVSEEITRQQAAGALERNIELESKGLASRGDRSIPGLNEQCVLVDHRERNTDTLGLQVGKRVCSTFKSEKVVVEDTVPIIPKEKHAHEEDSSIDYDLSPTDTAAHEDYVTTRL
- measurement-notes: mouse TRPC4 channel inhibitors, dose response, cell-based, HEK293 TRPC4/mu-opioid, Fluo-4 calcium (AID 434942);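 also: potency of inhibitors blocking the TRPC4 calcium response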
- Assay type: functional
The source made the active and inactive calls.
value-type: EC50

1. Cc1cc(-c2csc3ncnc(N4CCN(C)CC4)c23)cc(C)c1C
1190 nM (active)
2. COc1cc(CNC2CCCC2)c(Br)cc1OCc1ccccc1
237 nM (active)
3. O=C(O)c1ccc(CSc2nc(-c3ccc(Cl)cc3)cc(C(F)(F)F)n2)cc1
5960 nM (active)
4. COc1ccccc1N1CCN(CC(C)N(C(=O)C2CCCCC2)c2ccccn2)CC1 (centres undefined)
335 nM (active)
